# targetSystem: Histone deacetylase 4 (Homo sapiens, UniProt P56524)
# Sequence (P56524 whole entry): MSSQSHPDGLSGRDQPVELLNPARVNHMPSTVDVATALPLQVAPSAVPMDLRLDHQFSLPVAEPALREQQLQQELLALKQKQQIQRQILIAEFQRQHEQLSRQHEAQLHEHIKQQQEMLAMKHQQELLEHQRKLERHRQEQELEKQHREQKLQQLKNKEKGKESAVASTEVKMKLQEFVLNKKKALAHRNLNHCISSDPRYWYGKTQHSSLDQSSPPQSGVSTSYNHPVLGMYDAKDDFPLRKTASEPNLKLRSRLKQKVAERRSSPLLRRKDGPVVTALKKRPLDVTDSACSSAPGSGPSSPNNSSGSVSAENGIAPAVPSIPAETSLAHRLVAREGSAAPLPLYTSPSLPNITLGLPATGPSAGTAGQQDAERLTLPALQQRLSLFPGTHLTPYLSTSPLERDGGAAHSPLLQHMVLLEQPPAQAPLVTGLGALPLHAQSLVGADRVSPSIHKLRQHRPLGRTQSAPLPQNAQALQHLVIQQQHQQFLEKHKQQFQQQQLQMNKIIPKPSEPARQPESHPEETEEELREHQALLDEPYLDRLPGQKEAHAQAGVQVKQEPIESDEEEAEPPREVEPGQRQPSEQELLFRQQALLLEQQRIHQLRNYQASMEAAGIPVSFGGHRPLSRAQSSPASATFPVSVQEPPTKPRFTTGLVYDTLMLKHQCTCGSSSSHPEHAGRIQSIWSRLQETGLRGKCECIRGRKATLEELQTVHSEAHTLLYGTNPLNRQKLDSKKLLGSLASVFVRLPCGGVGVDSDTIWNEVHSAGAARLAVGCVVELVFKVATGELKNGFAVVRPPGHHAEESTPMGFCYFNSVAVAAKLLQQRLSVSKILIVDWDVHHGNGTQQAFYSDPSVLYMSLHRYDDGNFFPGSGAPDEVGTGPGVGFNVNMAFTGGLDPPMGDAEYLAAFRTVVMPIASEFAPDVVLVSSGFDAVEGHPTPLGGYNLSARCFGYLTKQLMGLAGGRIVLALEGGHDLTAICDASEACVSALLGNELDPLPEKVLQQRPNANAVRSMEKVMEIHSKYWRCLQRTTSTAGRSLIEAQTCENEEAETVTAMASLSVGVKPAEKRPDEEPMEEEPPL
# runDescription: Inhibition of HDAC4 (unknown origin) expressed in baculovirus infected in Sf9 cells using RHKKAc as substrate preincubated for 5 to 10 mins followed by substrate addition measured after 2 hrs by fluorescence based assay
pIC50: −log10 of the molar value.
experimentalEndpoint: pIC50

Query: I would be grateful if you could share the reported pIC50 for O=C(NO)c1ccc(CNC(=O)[C@H]2Cc3c([nH]c4ccccc34)[C@H](c3ccc(Cl)cc3)N2)cc1 .
Reply: < 4.30

###

# runDescription: AUC (0 to last) in Sprague-Dawley rat at 0.2 mg/kg, iv by LC-MS/MS analysis
# Type: ADME, organism-based
# experimentalParameters: in vivo
experimentalEndpoint: AUC(0-t) (µM·h)
Numbers only; they are read as µM·h.

Query: I would be grateful if you could share the reported AUC(0-t) for O=C(NO)c1ccc(CNC(=O)[C@H]2Cc3c([nH]c4ccccc34)[C@H](c3ccc(Cl)cc3)N2)cc1 .
Reply: 1.46

###

# targetSystem: Histone deacetylase 1 (Homo sapiens, UniProt Q13547)
# Sequence (Q13547 whole entry): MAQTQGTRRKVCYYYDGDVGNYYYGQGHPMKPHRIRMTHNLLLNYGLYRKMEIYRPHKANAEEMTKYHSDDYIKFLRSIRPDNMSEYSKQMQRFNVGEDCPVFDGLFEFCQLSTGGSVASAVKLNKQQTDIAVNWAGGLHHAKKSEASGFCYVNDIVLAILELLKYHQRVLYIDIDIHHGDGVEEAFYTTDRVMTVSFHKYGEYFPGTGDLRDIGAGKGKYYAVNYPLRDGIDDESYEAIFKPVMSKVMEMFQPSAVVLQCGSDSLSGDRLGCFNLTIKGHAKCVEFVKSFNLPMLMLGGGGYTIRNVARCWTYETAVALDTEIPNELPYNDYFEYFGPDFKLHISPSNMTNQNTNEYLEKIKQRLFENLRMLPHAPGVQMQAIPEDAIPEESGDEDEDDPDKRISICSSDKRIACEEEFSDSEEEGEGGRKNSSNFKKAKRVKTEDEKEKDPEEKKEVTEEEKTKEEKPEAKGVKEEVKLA
# runDescription: Inhibition of HDAC1 (unknown origin) expressed in baculovirus infected in Sf9 cells using RHKKAc as substrate at 500 nM preincubated for 5 to 10 mins followed by substrate addition measured after 2 hrs by fluorescence based assay relative to control
# experimentalParameters: time 5-130 min
experimentalEndpoint: inhibition (%)
Numbers only; they are read as %.

These recorded examples may help you get a feel for the data.
Query: I would be grateful if you could share the reported inhibition for COc1ccc([C@@H]2N[C@H](C(=O)NCc3ccc(C(=O)NO)cc3)Cc3c2[nH]c2ccccc32)cc1 .
Reply: 30.6

Query: I would be grateful if you could share the reported inhibition for COc1ccc([C@@H]2N[C@@H](C(=O)NCc3ccc(C(=O)NO)cc3)Cc3c2[nH]c2ccccc32)cc1 .
Reply: 90.6

Query: I would be grateful if you could share the reported inhibition for COc1ccc(CN2Cc3[nH]c4ccccc4c3C[C@@H]2C(=O)NCc2ccc(C(=O)NO)cc2)cc1 .
Reply: 32

Query: I would be grateful if you could share the reported inhibition for COc1ccc(C[C@H]2N[C@H](C(=O)NCc3ccc(C(=O)NO)cc3)Cc3c2[nH]c2ccccc32)cc1 .
Reply: 38.1

Further cases:
Query: I would be grateful if you could share the reported inhibition for COc1ccc(CN2[C@@H](C(=O)NCc3ccc(C(=O)NO)cc3)Cc3c([nH]c4ccccc34)[C@@H]2C2CC2)cc1 .
Reply: 83.4

###

# targetSystem: Histone deacetylase 1 (Homo sapiens, UniProt Q13547)
# runDescription: Inhibition of HDAC1 (unknown origin) expressed in baculovirus infected in Sf9 cells using RHKKAc as substrate at 500 nM preincubated for 5 to 10 mins followed by substrate addition measured after 2 hrs by fluorescence based assay relative to control
# experimentalParameters: time 5-130 min
experimentalEndpoint: inhibition (%)
Numbers only; they are read as %.

These recorded examples may help you get a feel for the data.
Query: I would be grateful if you could share the reported inhibition for COc1ccc([C@H]2N[C@@H](C(=O)NCc3ccc(C(=O)NO)cc3)Cc3c2[nH]c2ccccc32)cc1 .
Reply: 35.8

Query: I would be grateful if you could share the reported inhibition for COc1ccc([C@H]2N[C@H](C(=O)NCc3ccc(C(=O)NO)cc3)Cc3c2[nH]c2ccccc32)cc1 .
Reply: 71.4

Now for a further compound.
Query: I would be grateful if you could share the reported inhibition for COc1ccc(CN2[C@H](C(=O)NCc3ccc(C(=O)NO)cc3)Cc3c([nH]c4ccccc34)[C@H]2C2CC2)cc1 .
Reply: 43.2
